// data source = patent US20090215895A1

- EXPERIMENTAL SYSTEM: PKC isozyme δ (Homo sapiens, UniProt Q05655)
- Construct: endogenous in cells; host or cells: HL-60
- Sequence (Q05655 whole entry): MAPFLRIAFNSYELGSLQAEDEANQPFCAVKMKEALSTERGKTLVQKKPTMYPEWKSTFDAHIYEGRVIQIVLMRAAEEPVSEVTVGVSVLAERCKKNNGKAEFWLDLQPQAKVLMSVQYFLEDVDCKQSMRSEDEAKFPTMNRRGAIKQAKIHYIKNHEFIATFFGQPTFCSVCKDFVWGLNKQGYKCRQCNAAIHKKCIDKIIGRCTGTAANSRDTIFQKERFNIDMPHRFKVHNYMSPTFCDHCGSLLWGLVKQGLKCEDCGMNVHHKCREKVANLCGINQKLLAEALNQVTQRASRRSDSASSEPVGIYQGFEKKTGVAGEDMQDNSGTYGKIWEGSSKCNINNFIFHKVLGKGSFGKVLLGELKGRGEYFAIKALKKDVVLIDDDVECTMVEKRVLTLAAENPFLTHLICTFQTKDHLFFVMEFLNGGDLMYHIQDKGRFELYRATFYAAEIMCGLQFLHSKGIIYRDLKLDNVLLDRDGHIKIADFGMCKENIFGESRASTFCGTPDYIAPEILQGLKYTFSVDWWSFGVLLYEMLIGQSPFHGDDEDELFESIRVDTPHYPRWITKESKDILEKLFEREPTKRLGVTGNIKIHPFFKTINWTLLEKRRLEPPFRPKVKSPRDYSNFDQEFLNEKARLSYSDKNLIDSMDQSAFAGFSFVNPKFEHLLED
- EXPERIMENT DESCRIPTION: PMA-induced PKC translocation in HL-60 cells (Western blot)
- Format: cell-based
- Set-up: key: +++: strong inhibition of PKC activation; −: no inhibition of PKC activation
- REPORTED CONDITIONS: 20 μM, 60 min
MEASUREMENT NAME: Inhibition of PKC activation, isozyme δ

Return reported Inhibition of PKC activation, isozyme δ; argument: "CCCCC/C=C\C/C=C\C/C=C\CCCCC[N+](=O)[O-]" −

Moving on to "CCCCCCCCCCCCCCCCCC(CCC(=O)O)(CCC(=O)O)[N+](=O)[O-]" +++

Moving on to "CCCCCCCCCCCCCCCCCC[N+](=O)[O-]" −

Moving on to "CCCCC/C=C\C/C=C\C/C=C\C/C=C\CCCC[N+](=O)[O-]" +++

Moving on to "CC/C=C\C/C=C\C/C=C\CCCCCCCC[N+](=O)[O-]" −

Next compound, Inhibition of PKC activation, isozyme δ to be filled in.
Return reported Inhibition of PKC activation, isozyme δ; argument: "CC/C=C\C/C=C\C/C=C\C/C=C\C/C=C\C/C=C\CCC[N+](=O)[O-]" −

###

- EXPERIMENTAL SYSTEM: PKC isozyme α (Homo sapiens, UniProt P17252)
- Construct: endogenous in cells; host or cells: HL-60
- EXPERIMENT DESCRIPTION: PMA-induced PKC translocation in HL-60 cells (Western blot)
- Format: cell-based
- Parameters: key: +++: strong inhibition of PKC activation; −: no inhibition of PKC activation
- REPORTED CONDITIONS: 20 μM, 60 min
MEASUREMENT NAME: Inhibition of PKC activation, isozyme α

Return reported Inhibition of PKC activation, isozyme α; argument: CCCCCCCCCCCCCCCCCC(CCC(=O)O)(CCC(=O)O)[N+](=O)[O-] [Lx8] +++

Moving on to CCCCC/C=C\C/C=C\C/C=C\CCCCC[N+](=O)[O-] [Lx3] −

Moving on to CC/C=C\C/C=C\C/C=C\C/C=C\C/C=C\C/C=C\CCC[N+](=O)[O-] [Lx5] −

Moving on to CCCCCCCCCCCCCCCCCC[N+](=O)[O-] [Lx1] −

Moving on to CCCCC/C=C\C/C=C\C/C=C\C/C=C\CCCC(CCC(=O)O)(CCC(=O)O)[N+](=O)[O-] [Lx9] −

Next compound, Inhibition of PKC activation, isozyme α to be filled in.
Return reported Inhibition of PKC activation, isozyme α; argument: CC/C=C\C/C=C\C/C=C\CCCCCCCC[N+](=O)[O-] [Lx2] −

###

- EXPERIMENTAL SYSTEM: PKC isozyme β2 (Homo sapiens)
- Construct: endogenous in cells; host or cells: HL-60
- Sequence (P05771 1-673 isoform P05771-2): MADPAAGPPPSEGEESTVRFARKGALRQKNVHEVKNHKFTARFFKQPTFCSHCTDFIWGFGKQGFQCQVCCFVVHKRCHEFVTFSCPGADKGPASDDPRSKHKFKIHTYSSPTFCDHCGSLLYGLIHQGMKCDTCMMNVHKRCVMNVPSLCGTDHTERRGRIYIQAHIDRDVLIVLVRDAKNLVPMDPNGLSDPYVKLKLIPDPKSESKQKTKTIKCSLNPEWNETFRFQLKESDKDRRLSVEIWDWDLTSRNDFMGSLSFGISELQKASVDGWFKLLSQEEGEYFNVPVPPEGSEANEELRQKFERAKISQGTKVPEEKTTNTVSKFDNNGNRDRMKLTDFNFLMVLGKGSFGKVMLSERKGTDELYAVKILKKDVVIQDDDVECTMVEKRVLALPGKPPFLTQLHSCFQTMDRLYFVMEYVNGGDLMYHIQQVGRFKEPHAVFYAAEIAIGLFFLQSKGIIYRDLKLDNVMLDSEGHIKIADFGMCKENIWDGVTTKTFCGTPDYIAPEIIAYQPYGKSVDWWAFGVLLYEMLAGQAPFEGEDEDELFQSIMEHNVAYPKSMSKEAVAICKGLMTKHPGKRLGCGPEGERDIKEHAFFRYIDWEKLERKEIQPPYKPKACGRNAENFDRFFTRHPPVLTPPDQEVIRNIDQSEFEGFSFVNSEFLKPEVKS
- EXPERIMENT DESCRIPTION: PMA-induced PKC translocation in HL-60 cells (Western blot)
- Type: cell-based
- Design: key: +++: strong inhibition of PKC activation; −: no inhibition of PKC activation
- REPORTED CONDITIONS: 20 μM, 60 min
MEASUREMENT NAME: Inhibition of PKC activation, isozyme β2

Examples with their reported Inhibition of PKC activation, isozyme β2 follow.
Return reported Inhibition of PKC activation, isozyme β2; argument: "CC/C=C\C/C=C\C/C=C\CCCCCCCC[N+](=O)[O-]" +++

Moving on to "CCCCCCCCCCCCCCCCCC[N+](=O)[O-]" −

Moving on to "CC/C=C\C/C=C\C/C=C\C/C=C\C/C=C\C/C=C\CCC[N+](=O)[O-]" −

Moving on to "CCCCCCCCCCCCCCCCCC(CCC(=O)O)(CCC(=O)O)[N+](=O)[O-]" +++

Moving on to "CCCCC/C=C\C/C=C\C/C=C\C/C=C\CCCC[N+](=O)[O-]" +++

More entries:
Return reported Inhibition of PKC activation, isozyme β2; argument: "CCCCC/C=C\C/C=C\C/C=C\CCCCC[N+](=O)[O-]" +++

Moving on to "CCCCC/C=C\C/C=C\C/C=C\C/C=C\CCCC(CCC(=O)O)(CCC(=O)O)[N+](=O)[O-]" +++
